Reference source: patent US6884600B1

Biological target: T1, myosin (Gallus gallus, UniProt P10587)
T1 construct: from tissue; host or cells: chicken gizzard
T1 sequence (P10587 whole entry): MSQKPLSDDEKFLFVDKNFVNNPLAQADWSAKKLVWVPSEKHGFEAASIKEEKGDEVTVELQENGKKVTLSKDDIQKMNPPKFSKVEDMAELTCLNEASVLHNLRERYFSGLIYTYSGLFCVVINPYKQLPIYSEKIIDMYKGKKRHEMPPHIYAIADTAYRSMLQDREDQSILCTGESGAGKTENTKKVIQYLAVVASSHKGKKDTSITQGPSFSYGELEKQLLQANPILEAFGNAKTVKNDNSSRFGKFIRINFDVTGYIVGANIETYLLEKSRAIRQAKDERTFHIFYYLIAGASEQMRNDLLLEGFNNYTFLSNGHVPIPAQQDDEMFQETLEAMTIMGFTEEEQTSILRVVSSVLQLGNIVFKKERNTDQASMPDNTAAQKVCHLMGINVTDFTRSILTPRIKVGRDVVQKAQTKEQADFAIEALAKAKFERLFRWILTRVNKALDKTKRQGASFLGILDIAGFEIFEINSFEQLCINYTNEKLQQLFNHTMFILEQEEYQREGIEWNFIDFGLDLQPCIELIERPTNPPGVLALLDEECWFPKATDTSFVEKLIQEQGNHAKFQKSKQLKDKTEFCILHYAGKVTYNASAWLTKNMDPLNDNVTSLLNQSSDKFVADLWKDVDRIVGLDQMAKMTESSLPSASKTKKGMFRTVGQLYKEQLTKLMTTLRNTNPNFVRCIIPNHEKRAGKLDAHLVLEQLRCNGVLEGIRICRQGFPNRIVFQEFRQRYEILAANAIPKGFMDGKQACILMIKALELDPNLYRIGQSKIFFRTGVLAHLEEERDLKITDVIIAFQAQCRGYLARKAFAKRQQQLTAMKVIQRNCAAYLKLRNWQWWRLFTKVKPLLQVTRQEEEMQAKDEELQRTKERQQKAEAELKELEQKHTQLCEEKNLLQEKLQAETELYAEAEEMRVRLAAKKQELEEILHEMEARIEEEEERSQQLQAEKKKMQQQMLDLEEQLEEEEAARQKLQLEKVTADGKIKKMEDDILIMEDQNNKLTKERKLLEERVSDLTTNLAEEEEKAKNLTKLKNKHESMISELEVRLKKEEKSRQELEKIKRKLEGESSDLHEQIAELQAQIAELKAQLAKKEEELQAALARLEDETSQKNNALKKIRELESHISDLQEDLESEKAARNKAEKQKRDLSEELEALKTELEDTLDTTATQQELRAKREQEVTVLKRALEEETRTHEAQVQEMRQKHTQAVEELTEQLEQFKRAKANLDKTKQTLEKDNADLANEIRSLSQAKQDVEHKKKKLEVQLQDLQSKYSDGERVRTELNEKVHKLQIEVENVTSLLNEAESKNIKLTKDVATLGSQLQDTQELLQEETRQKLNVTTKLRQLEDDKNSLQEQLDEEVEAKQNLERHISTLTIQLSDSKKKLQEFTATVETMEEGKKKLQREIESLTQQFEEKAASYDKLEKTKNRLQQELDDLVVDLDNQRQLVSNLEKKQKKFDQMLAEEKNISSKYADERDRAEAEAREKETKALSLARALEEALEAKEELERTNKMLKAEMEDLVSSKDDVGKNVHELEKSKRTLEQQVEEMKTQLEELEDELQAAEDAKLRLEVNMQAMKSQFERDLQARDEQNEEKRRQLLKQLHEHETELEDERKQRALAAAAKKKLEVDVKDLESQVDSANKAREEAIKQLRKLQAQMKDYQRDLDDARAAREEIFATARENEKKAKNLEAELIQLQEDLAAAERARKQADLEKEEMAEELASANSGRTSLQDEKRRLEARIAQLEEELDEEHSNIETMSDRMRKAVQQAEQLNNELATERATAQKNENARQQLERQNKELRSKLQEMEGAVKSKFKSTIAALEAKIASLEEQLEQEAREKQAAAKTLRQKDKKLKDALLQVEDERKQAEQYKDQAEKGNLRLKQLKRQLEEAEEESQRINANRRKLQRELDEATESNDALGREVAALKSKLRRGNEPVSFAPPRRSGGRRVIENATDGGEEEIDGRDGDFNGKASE
T1 sequence (P02612 whole entry partner): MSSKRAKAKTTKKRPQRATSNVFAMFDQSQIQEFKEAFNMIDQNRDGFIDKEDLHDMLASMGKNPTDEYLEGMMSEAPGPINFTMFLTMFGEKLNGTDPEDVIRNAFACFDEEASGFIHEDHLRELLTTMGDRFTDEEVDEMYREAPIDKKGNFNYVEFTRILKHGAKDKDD
T1 sequence (P02607 whole entry partner): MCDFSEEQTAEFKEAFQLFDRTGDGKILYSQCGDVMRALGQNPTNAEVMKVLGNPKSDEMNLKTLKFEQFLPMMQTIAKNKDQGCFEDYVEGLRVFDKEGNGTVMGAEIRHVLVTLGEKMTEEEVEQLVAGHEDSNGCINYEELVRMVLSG
Assay: Myosin binding assay (pelleting with myosin)
Design: species or system chicken
Settings: myosin 1 μM, 15 min 0° C.

>  <molecule>
M110-(R714-I1004): C-terminal 291 residues of the chicken gizzard M110 subunit (protein) RSTRTREQENEEKEKEEKEKQDKEKQEEKKESETKDDDYRQRYSRTVEEPYHRYRPTSTSTSTSSTSSLSTSTSSLSSSSQLNRPNSLIGITSAYSRSGTKESEREGGKKEEEKEEDKSQPKSIRERRRPREKRRSTGVSFWTQDSDENEQEHQSDSEEGTNKKETQSDSLSRYDTGSLSVSSGDRYDSAQGRSGSQSYLEDRKPYCSRLEKEDSTDFKKLYEQILAENEKLKAQLHDTNMELTDLKLQLEKTTQRQERFADRSLLEMEKRVSGKSQYLLGGKKSSRKKDI

>  <binding to myosin>
bound to myosin

$$$$
>  <molecule>
GST-M21: GST fusion of the chicken gizzard M21 subunit (M1-K186) (protein, left off: a dimerising Fc or GST; small tags and cut ends) MSSLFTRSKEYTRSRKSQSDSPPSSPSPIAKTLRHERLSRLEAATTPATSDSYSDRASSRSSAYSRRENRLAALSSRAEEESNRDYKKLYESALSENQKLKSKLQEAQLELADIKSKLEKAAQQKHEKTSDRSSMLEMEKREKRALERKLSEMEEEMKILTELKSDNQRLKDENGALIRVISKLSK

>  <binding to myosin>
bound to myosin

$$$$
